Data provenance: ChEMBL document CHEMBL1138341

# Target Of Assay: UniProtKB P10275
# Sequence (P10275 whole entry): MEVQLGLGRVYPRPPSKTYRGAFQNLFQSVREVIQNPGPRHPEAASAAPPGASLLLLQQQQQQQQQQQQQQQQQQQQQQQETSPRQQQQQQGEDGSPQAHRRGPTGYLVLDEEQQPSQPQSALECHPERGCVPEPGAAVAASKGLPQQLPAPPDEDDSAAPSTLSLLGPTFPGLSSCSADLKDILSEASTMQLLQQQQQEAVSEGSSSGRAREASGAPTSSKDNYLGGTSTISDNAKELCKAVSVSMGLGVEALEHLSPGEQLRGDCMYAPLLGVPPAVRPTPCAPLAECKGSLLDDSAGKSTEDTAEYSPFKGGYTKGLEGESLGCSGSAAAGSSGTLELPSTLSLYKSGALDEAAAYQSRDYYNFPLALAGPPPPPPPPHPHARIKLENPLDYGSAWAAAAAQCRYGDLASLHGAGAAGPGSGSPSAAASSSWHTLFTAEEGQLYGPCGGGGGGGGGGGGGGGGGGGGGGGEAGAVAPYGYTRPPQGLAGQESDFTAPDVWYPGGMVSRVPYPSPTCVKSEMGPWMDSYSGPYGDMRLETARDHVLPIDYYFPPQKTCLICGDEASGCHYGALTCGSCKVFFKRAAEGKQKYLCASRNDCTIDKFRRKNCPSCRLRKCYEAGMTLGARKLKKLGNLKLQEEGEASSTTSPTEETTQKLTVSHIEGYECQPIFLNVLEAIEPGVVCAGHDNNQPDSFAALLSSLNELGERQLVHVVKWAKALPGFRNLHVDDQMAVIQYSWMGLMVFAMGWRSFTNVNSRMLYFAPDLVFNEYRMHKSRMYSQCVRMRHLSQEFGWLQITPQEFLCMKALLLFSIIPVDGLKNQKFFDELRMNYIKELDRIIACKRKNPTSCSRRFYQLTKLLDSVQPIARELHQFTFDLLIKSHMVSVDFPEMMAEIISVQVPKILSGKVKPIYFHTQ
Can you tell me Ki for the items I'm about to list?
Give bare numbers, in nM.

Here are 3 compounds together with their reported answers.
{"columns": ["Compound", "Ki / nM"],
 "data": [
  ["C[C@@](c1ccc(F)cc1)(c1c[nH]c2c(NS(C)(=O)=O)cccc12)C1CC1", 849],
  ["C[C@@](c1ccc(F)cc1F)(c1c[nH]c2c(NS(C)(=O)=O)cccc12)C1CC1", 700],
  ["COC(=O)[C@@H]1CC2=CC(=O)CC[C@]2(C)C2C1C1CC[C@@]3(CCC(=O)O3)[C@@]1(C)[C@H]1O[C@@H]21 (some centres undefined) [EPIERENONE]", 8890]
]}

The record that follows has no Ki shown yet.
### Prompt Looking for the measured Ki of C[C@](c1ccc(F)cc1)(c1c[nH]c2c(NS(C)(=O)=O)cccc12)C1CC1 , can you help?
### Response 590

---

A set of compounds tested on Progesterone receptor (Homo sapiens), with measured Ki:

In the examples that follow, each entry is paired with its recorded Ki.
{"columns": ["Compound", "Observed Value"],
 "data": [
  ["C[C@@](c1ccc(F)cc1)(c1c[nH]c2c(NS(C)(=O)=O)cccc12)C1CC1", "0.137 µM"],
  ["C[C@](c1ccc(F)cc1)(c1c[nH]c2c(NS(C)(=O)=O)cccc12)C1CC1", "0.313 µM"],
  ["COC(=O)[C@@H]1CC2=CC(=O)CC[C@]2(C)C2C1C1CC[C@@]3(CCC(=O)O3)[C@@]1(C)[C@H]1O[C@@H]21 (some centres undefined) [EPIERENONE]", "29.4 µM"]
]}

### Prompt Can you share its Ki? I mean this compound: C[C@@](c1ccc(F)cc1F)(c1c[nH]c2c(NS(C)(=O)=O)cccc12)C1CC1
### Response 0.163 µM
